Entry source: paper PMC9254699

Target: TGF-β1 (Homo sapiens, UniProt P01137)
Sequence (P01137 279-390): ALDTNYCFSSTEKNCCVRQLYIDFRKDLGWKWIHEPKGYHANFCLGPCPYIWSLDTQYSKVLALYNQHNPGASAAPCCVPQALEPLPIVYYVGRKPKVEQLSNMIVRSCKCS
Assay: sequestering from PRP by peptide-conjugated microspheres
No end group written: not given here.
readoutLabel: Kd

Q: Report Kd for CIAEIDLIPRDRPF (also: conjugated to PEG microspheres) [RIPΔ] please.
Result: ~215 nM
